I'd appreciate it if you could supply MBC values for the items below.
System: Staphylococcus aureus
test summary: Bactericidal activity against methicillin-resistant Staphylococcus aureus NCTC 13616 after 24 hrs
Assay type: functional
condition notes: NCTC 13616, 24 h, read-out: MBC99.9
Give bare numbers, in µg/mL.

For every item below, please supply its MBC.
1. CC1(C)S[C@@H]2[C@H](NC(=O)[C@H](N)c3ccccc3)C(=O)N2[C@H]1C(=O)O
2. Cc1ccc(-c2nn(-c3nc(-c4cc5cc(Br)ccc5oc4=O)cs3)cc2C=O)cc1
3. O=Cc1cn(-c2nc(-c3cc4cc(Br)ccc4oc3=O)cs2)nc1-c1ccc(Cl)cc1
4. O=Cc1cn(-c2nc(-c3cc4cc(Cl)ccc4oc3=O)cs2)nc1-c1ccccc1
5. COc1cccc2cc(-c3csc(-n4cc(C=O)c(-c5ccc(Cl)cc5)n4)n3)c(=O)oc12
6. O=Cc1cn(-c2nc(-c3cc4cc(Br)ccc4oc3=O)cs2)nc1-c1ccccc1

-- reply
1. 6
2. 275
3. 185
4. 300
5. 275
6. 175

For every item below, please supply its MBC.
1. O=Cc1cn(-c2nc(-c3cc4c(ccc5ccccc54)oc3=O)cs2)nc1-c1ccccc1
2. O=Cc1cn(-c2nc(-c3cc4cc(Br)cc(Br)c4oc3=O)cs2)nc1-c1ccccc1
3. Cc1ccc(-c2nn(-c3nc(-c4cc5cc(Cl)cc(Cl)c5oc4=O)cs3)cc2C=O)cc1

-- reply
1: 270; 2: 175; 3: 230

---

Test system: HeLa
test summary: Anticancer activity against human HeLa cells assessed as cell viability after 48 hrs by MTT assay
Assay type: functional, cell-based
property label: pIC50
Answers are plain numbers, as −log10 of the molar value.

Examples with answers:
smiles_representation=O=Cc1cn(-c2nc(-c3cc4cc(Cl)cc(Cl)c4oc3=O)cs2)nc1-c1ccccc1 assayed_target=HeLa measured_value=4.86
smiles_representation=O=Cc1cn(-c2nc(-c3cc4cc(Cl)cc(Cl)c4oc3=O)cs2)nc1-c1ccc(Cl)cc1 assayed_target=HeLa measured_value=4.99

-- ask Looking for the measured pIC50 of O=Cc1cn(-c2nc(-c3cc4cc(Br)cc(Br)c4oc3=O)cs2)nc1-c1ccccc1 , can you help?
-- reply 4.86

---

System: Staphylococcus aureus
test summary: Antibacterial activity against methicillin-resistant Staphylococcus aureus NCTC 13616 after 24 hrs by microtiter plate method
Format: functional
condition notes: NCTC 13616, 24 h
property label: MIC (µg/mL)
Answers are plain numbers, in µg/mL.

Examples with answers:
smiles_representation=O=Cc1cn(-c2nc(-c3cc4ccccc4oc3=O)cs2)nc1-c1ccccc1 measured_value=150
smiles_representation=O=Cc1cn(-c2nc(-c3cc4cc(Cl)cc(Cl)c4oc3=O)cs2)nc1-c1ccccc1 measured_value=115
smiles_representation=Cc1ccc(-c2nn(-c3nc(-c4cc5cc(Br)ccc5oc4=O)cs3)cc2C=O)cc1 measured_value=138
smiles_representation=CC1(C)S[C@@H]2[C@H](NC(=O)[C@H](N)c3ccccc3)C(=O)N2[C@H]1C(=O)O measured_value=4
smiles_representation=O=Cc1cn(-c2nc(-c3cc4cc(Cl)ccc4oc3=O)cs2)nc1-c1ccccc1 measured_value=150

For every item below, please supply its MIC.
1. Cc1ccc(-c2nn(-c3nc(-c4cc5cc(Cl)cc(Cl)c5oc4=O)cs3)cc2C=O)cc1
2. O=Cc1cn(-c2nc(-c3cc4cc(Br)cc(Br)c4oc3=O)cs2)nc1-c1ccccc1
3. O=Cc1cn(-c2nc(-c3cc4cc(Br)ccc4oc3=O)cs2)nc1-c1ccccc1

-- reply
1: 116; 2: 117; 3: 116
